Attribution: PubChem BioAssay (NCI)

system: SNB-75 CNS; assay: NCI-60 one-dose screen, 48 h (100 = growth as untreated, 0 = no growth, -100 = all killed); settings: 10 µM unless noted
About 83,000 compounds went through this panel and 20% of them were active in at least one assay; those are over-represented in the sample as a whole.
Observation type: growth (%)
Response body: numeric value in %, unit text excluded.

Here are 4 molecules together with their reported answers.
{"Molecule": "CC(C)Cc1ccc(C(C)C(=O)NCc2c[nH]c3ccc(Cl)cc23)cc1 (stereo not given)", "growth (%)": 102}
{"Molecule": "C=C(C)[C@@H]1CC[C@]2(C(=O)N3CCN(C)CC3)CC[C@]3(C)[C@H](CC[C@@H]4[C@@]5(C)CCC(=O)C(C)(C)[C@@H]5CC[C@]43C)[C@@H]12", "growth (%)": 85.2}
{"Molecule": "COc1ccc(C(=O)c2cc(C)c(OC)c(C)c2)c(OC)c1O", "growth (%)": 57.8}
{"Molecule": "COc1cc(C2CC(c3cccc(Nc4ccncc4)c3)=NN2c2ccc(Cl)cc2)cc(OC)c1OC (stereo not given)", "growth (%)": 26.1}

// next entry
Data request: What measured growth goes with Cc1ccc2[nH]c(=O)cc(-n3nncc3COc3ccc(C=O)cc3)c2c1 ?
Data returned: 91.2

----------
The following compounds are listed with their measured growth values.
system: NCI-H460 lung; assay: NCI-60 one-dose screen, 48 h (100 = growth as untreated, 0 = no growth, -100 = all killed); conditions: 10 µM unless noted
Compounds without any hit were thinned out: in the full panel of roughly 83,000, 20% have a hit.
Numeric answer only, unit % assumed.

Would you please look over these solved cases?
{"Compound": "O=C(NCCc1ccccn1)OCc1nc2nc(Cl)nc(N3CCOCC3)c2[nH]1", "Result": 3.35}
{"Compound": "C[C@@H]1CN(Cc2ccc(/C=C/c3n[nH]c4ccc5nc(-c6cn[nH]c6C(F)(F)F)c6c(c5c34)CCCC6)cc2)C[C@H](C)O1", "Result": -4.09}
{"Compound": "O=c1[nH]nc(-c2ccc(Cl)cc2)cc1Cc1cccc([N+](=O)[O-])c1", "Result": 99.9}
{"Compound": "COc1cc(NCC(O)CN(CC(C)C)C2CCCC2)c2ncccc2c1 (stereo not given)", "Result": 89.4}
{"Compound": "Fc1ccc(C2CC(c3cccc(Nc4ccncc4)c3)=NN2c2ccc(Cl)cc2)cc1 (stereo not given)", "Result": -53.9}

Data request: Query (compound): COc1ccc(/C=C/C(=O)c2ccc(OC)c(OC)c2)cc1O ; field requested: growth
Data returned: 44.2

Data request: Look at this compound and give its reported growth. COc1cc2nc(-c3ccc(C#N)cc3)[nH]c(=O)c2cc1OC
Data returned: 105

----------
tested on: T-47D breast; assay: NCI-60 one-dose screen, 48 h (100 = growth as untreated, 0 = no growth, -100 = all killed); settings: 10 µM unless noted
This is part of a sample that, as a whole, favours compounds with a hit. Of some 83,000 tested, about 20% had one in any assay.
Observation type: growth (%)
Express it in %; write the number only.

// solved cases for growth follow
{"Molecule": "Cc1ccc(Nc2cc(=S)nc(N)[nH]2)cc1C", "Result": 89.2}
{"Molecule": "C=C(C)[C@H]1CC/C(C)=C/CC[C@]2(C)O[C@H]2CC/C(COC(=O)[C@@H](OC(C)=O)[C@H](NC(=O)c2ccccc2)c2ccccc2)=C\\[C@@H]1O", "Result": 73.6}
{"Molecule": "C#CC(=O)Nc1cccc2c1cc(C)n2-c1nc2c(c(NCc3ccccc3)n1)CCCC2", "Result": -41.4}
{"Molecule": "COc1ccc(C(O)c2cc3c(N)c(C(=O)Nc4ccccc4)sc3nc2C)cc1 (stereo not given)", "Result": 51.7}
{"Molecule": "COc1ccc2c(/C=C3/C(=O)NC(=S)NC3C)cc(=O)oc2c1 (stereo not given)", "Result": 88}
{"Molecule": "NC(=O)C1(N2CCCCC2)CCN(CCCC(=O)c2ccc(F)cc2)CC1", "Result": 44}

Data request: Recorded growth for Cc1nc2sc(C(=O)Nc3ccccc3)c(N)c2cc1C(=O)c1ccc(C(F)(F)F)cc1 , please?
Data returned: 97.2

Data request: Bench note: what growth did Cc1cc2cc3cc(C)c(N)cc3[n+](C)c2cc1N show?
Data returned: 8.77

Data request: Give the measured growth of CC(O)(CO)c1ccccc1 (stereo not given) .
Data returned: 102

Data request: Using the record for O=C1CCCN1c1cccc2cccnc12 , report its growth.
Data returned: 97.5
